- tested_system: huBChE (Homo sapiens)
- Construct: made in house
- Sequence (P06276 29-602): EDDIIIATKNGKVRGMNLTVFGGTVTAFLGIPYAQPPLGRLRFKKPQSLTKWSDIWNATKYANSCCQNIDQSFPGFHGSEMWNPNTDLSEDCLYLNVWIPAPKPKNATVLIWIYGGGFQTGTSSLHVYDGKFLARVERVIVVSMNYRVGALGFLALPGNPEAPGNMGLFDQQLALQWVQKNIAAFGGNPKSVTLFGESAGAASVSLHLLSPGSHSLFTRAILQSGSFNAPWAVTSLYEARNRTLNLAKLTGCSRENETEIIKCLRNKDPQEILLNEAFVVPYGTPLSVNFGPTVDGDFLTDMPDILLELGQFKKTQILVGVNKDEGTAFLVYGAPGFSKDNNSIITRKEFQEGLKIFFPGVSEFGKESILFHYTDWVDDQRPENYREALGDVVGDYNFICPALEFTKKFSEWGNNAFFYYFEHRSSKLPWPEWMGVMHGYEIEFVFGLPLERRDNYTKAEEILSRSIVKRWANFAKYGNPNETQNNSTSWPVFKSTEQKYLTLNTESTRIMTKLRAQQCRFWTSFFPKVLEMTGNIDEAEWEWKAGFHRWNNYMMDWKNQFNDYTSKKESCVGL
- Format: biochemical
- setup_conditions: Supplementary Table 1; head prints no unit, nM; read-out: IC50 ±SEM huBChE
Decision: IC50 beneath 300 nM gives criterion met; IC50 meeting or exceeding 300 nM gives criterion not met.

-- ask Does the reported IC50 of the following compound sit strictly below 300 nM? N#Cc1ccc(CN2CCCC(CNS(=O)(=O)c3ccc4ccccc4c3)C2)cc1 (racemic) [compound 69]
-- reply criterion not met

-- ask Does the reported IC50 of the following compound sit strictly below 300 nM? O=S(=O)(NCC1CCCN(Cc2ccc(F)cc2)C1)c1ccc2ccccc2c1 (racemic) [compound 68]
-- reply criterion not met

-- ask Does the reported IC50 of the following compound sit strictly below 300 nM? COCCN(CC1CCCN(Cc2cccc(F)c2)C1)S(=O)(=O)c1ccc2ccccc2c1 (racemic) [compound 38]
-- reply criterion met

-- ask Does the reported IC50 of the following compound sit strictly below 300 nM? Cc1cccc(CN2CCCC(CNS(=O)(=O)c3ccc4ccccc4c3)C2)c1 (racemic) [compound 66]
-- reply criterion met

-- ask Does the reported IC50 of the following compound sit strictly below 300 nM? CCCCN(CC1CCCN(Cc2ccccc2)C1)S(=O)(=O)c1ccc2ccccc2c1 (racemic) [compound 48]
-- reply criterion met

-- ask Does the reported IC50 of the following compound sit strictly below 300 nM? COCCN(CC1CCCN(C2Cc3ccccc3C2)C1)S(=O)(=O)c1ccc(C)cc1 (racemic) [compound 17]
-- reply criterion met

-- ask Does the reported IC50 of the following compound sit strictly below 300 nM? O=S(=O)(NCC1CCCN(Cc2ccc(F)cc2Cl)C1)c1ccc2ccccc2c1 (racemic) [compound 67]
-- reply criterion not met

-- ask Does the reported IC50 of the following compound sit strictly below 300 nM? O=S(=O)(NCC1CCCN(Cc2ccncc2)C1)c1ccc2ccccc2c1 (racemic) [compound 64]
-- reply criterion not met

-- ask Does the reported IC50 of the following compound sit strictly below 300 nM? COCCN(CC1CCCN(Cc2ccc(N(C)C)cc2)C1)S(=O)(=O)c1ccc2ccccc2c1 (racemic) [compound 41]
-- reply criterion not met

-- ask Does the reported IC50 of the following compound sit strictly below 300 nM? COCCN(CC1CCCN(C2Cc3ccccc3C2)C1)S(=O)(=O)c1cccc([N+](=O)[O-])c1 (racemic) [compound 13]
-- reply criterion not met

-- ask Does the reported IC50 of the following compound sit strictly below 300 nM? CNC(=O)c1ccccc1S(=O)(=O)N(CCOC)CC1CCCN(C2Cc3ccccc3C2)C1 (racemic) [compound 25]
-- reply criterion not met

-- ask Does the reported IC50 of the following compound sit strictly below 300 nM? COCCN(CC1CCCN(Cc2cccc(C#N)c2)C1)S(=O)(=O)c1ccc2ccccc2c1 (racemic) [compound 40]
-- reply criterion not met

-- ask Does the reported IC50 of the following compound sit strictly below 300 nM? COCCN(CC1CCCN(Cc2ccccc2)C1)S(=O)(=O)c1cccc2ccccc12 (racemic) [compound 42]
-- reply criterion met

-- ask Does the reported IC50 of the following compound sit strictly below 300 nM? COCCN(CC1CCCN(C2Cc3ccccc3C2)C1)S(=O)(=O)c1ccc(OC)cc1 (racemic) [compound 19]
-- reply criterion not met

-- ask Does the reported IC50 of the following compound sit strictly below 300 nM? COCCN(CC1CCCN(C2Cc3ccccc3C2)C1)S(=O)(=O)c1ccccc1 (racemic) [compound 16]
-- reply criterion not met

-- ask Does the reported IC50 of the following compound sit strictly below 300 nM? COCCCN(CC1CCCN(Cc2ccccc2)C1)S(=O)(=O)c1ccc2ccc(OCC#N)cc2c1 (racemic) [compound 49]
-- reply criterion met

-- ask Does the reported IC50 of the following compound sit strictly below 300 nM? COCCN(CC1CCCN(Cc2ccccc2)C1)S(=O)(=O)c1ccc2ccc(OC)cc2c1 (racemic) [compound 43]
-- reply criterion met
